Overview of reported pIC50 across a group of molecules:
Biological target: human V1a receptor (Homo sapiens)
Sequence (P37288 whole entry): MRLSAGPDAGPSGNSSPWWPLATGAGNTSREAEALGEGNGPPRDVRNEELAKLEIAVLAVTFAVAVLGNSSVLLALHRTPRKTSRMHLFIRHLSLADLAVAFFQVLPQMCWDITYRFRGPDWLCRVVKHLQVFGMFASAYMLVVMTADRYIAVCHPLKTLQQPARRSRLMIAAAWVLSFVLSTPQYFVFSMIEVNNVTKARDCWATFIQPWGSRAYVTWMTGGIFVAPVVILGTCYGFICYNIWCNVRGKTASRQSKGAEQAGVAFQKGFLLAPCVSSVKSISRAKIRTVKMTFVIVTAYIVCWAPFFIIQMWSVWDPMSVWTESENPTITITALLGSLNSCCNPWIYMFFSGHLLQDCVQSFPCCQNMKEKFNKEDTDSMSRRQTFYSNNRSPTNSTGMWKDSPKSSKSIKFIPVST
Test: Cellular in vitro assay for vasopressin receptor activity, V1a receptor cell line (aequorin luminescence)
Details: CHO cell line transfected with human V1a receptor; [Arg8]-vasopressin at EC50 concentration; read-out: IC50 hV1a
pIC50: −log10 of the molar value. Where a name gives a salt, the structure may show the parent alone.
Observation type: pIC50

>>> reported_result("CC1(CNC(=O)c2nc(Cn3nc(-c4ccc(Cl)cc4)n(C[C@H](O)C(F)(F)F)c3=O)nn2-c2cnccc2Cl)COC1")
9.17
>>> reported_result("CNC(=O)c1nc(Cn2nc(-c3ccc(Cl)cc3)n(C[C@H](O)C(F)(F)F)c2=O)nn1-c1ncccc1OC")
8.22
>>> reported_result("NC(CNC(=O)c1nc(Cn2nc(-c3ccc(Cl)cc3)n(C[C@H](O)C(F)(F)F)c2=O)nn1-c1ncccc1C(F)(F)F)C(F)(F)F (mixture of isomers) [Example 51, hydrochloride]")
6.87
>>> reported_result("O=C(NCC(F)(F)F)c1nc(Cn2nc(-c3ccc(Cl)cc3)n(C[C@H](O)C(F)(F)F)c2=O)nn1-c1cccnc1Cl")
7.87
>>> reported_result("CC1(CNC(=O)c2nc(Cn3nc(-c4ccc(Cl)cc4)n(C[C@H](O)C(F)(F)F)c3=O)nn2-c2ncccc2C(F)(F)F)COC1")
9.19
>>> reported_result("O=C(NCC(F)(F)F)c1nc(Cn2nc(-c3ccc(Cl)cc3)n(C[C@H](O)C(F)(F)F)c2=O)nn1-c1cnccc1Cl")
9.33
>>> reported_result("COc1cccnc1-n1nc(Cn2nc(-c3ccc(Cl)cc3)n(C[C@H](O)C(F)(F)F)c2=O)nc1C(=O)NCC(C)(C)N")
8.16
>>> reported_result("NNC(=O)c1nc(Cn2nc(-c3ccc(Cl)cc3)n(C[C@H](O)C(F)(F)F)c2=O)nn1-c1ncccc1Cl")
8.67
>>> reported_result("CON(C)C(=O)c1nc(Cn2nc(-c3ccc(Cl)cc3)n(C[C@H](O)C(F)(F)F)c2=O)nn1-c1cccc(Cl)c1")
9.19
>>> reported_result("CC(C)(O)CNC(=O)c1nc(Cn2nc(-c3ccc(Cl)cc3)n(C[C@H](O)C(F)(F)F)c2=O)nn1-c1cnccc1Cl")
9.35
>>> reported_result("CC1(O)CCN(C(=O)c2nc(Cn3nc(-c4ccc(Cl)cc4)n(C[C@H](O)C(F)(F)F)c3=O)nn2-c2ncccc2OC(F)(F)F)C1 (stereo partly drawn)")
7.99
>>> reported_result("O=C(NCC(F)(F)F)c1nc(Cn2nc(-c3ccc(Cl)cc3)n(C[C@H](O)C(F)(F)F)c2=O)nn1-c1ncccc1Cl")
9.15
>>> reported_result("CC1(O)CCN(C(=O)c2nc(Cn3nc(-c4ccc(Cl)cc4)n(C[C@H](O)C(F)(F)F)c3=O)nn2CCC(F)(F)F)C1 (single isomer, unassigned) [Example 23]")
6.55
>>> reported_result("O=C(NCC1(O)CC1)c1nc(Cn2nc(-c3ccc(Cl)cc3)n(C[C@H](O)C(F)(F)F)c2=O)nn1-c1ccccc1Cl")
8.92
>>> reported_result("CNC(=O)c1nc(Cn2nc(-c3ccc(Cl)cc3)n(C[C@H](O)C(F)(F)F)c2=O)nn1-c1ccccc1Cl")
8.68

----------
Target: human V2 receptor (Homo sapiens, UniProt P30518)
Sequence (P30518 whole entry): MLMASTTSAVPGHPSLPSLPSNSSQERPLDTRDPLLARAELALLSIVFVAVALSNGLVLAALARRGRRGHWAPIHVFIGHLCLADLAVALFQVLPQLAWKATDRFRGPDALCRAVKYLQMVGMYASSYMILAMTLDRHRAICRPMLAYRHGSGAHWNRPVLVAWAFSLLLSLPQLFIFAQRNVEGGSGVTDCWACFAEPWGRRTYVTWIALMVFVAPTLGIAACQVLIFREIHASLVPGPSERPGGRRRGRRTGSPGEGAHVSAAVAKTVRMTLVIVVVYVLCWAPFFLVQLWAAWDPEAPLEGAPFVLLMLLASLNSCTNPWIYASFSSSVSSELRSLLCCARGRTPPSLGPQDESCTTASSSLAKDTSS
Test: Cellular in vitro assay for vasopressin receptor activity, V2 receptor cell line (CRE-luciferase)
Details: CHO cell line transfected with human V2 receptor; [Arg8]-vasopressin at EC50 concentration; read-out: IC50 hV2
pIC50: −log10 of the molar value.
The entries below are paired with their reported pIC50.
Observation type: pIC50

>>> reported_result("CC1(CNC(=O)c2nc(Cn3nc(-c4ccc(Cl)cc4)n(C[C@H](O)C(F)(F)F)c3=O)nn2-c2ncccc2OC(F)(F)F)COC1 [Example 7]")
6.47
>>> reported_result("CC(C)(O)CNC(=O)c1nc(Cn2nc(-c3ccc(Cl)cc3)n(C[C@H](O)C(F)(F)F)c2=O)nn1-c1ncccc1OC(F)(F)F [Example 1]")
7.09
>>> reported_result("CNC(=O)c1nc(Cn2nc(-c3ccc(Cl)cc3)n(C[C@H](O)C(F)(F)F)c2=O)nn1-c1ccccc1Cl [Example 43]")
7.78
>>> reported_result("CC1(O)CCN(C(=O)c2nc(Cn3nc(-c4ccc(Cl)cc4)n(C[C@H](O)C(F)(F)F)c3=O)nn2-c2cnccc2Cl)C1 (stereo partly shown) [Example 6]")
6.44

Value source: patent US11230540B2
